Please respond with reported viscosity for every item in the list.
# ASSAY_CONTEXT: 343.15 K; 101.33 kPa; Liquid; Capillary tube (Ostwald / Ubbelohde) method
Give bare numbers, in mPa·s.

{"COMPOUND": "CCCCn1cc[n+](C)c1.O=S(=O)([O-])C(F)(F)C(F)OC(F)(F)C(F)(F)F (stereo not drawn)", "READOUT_NUMBER": 31.6}

Provide viscosity values for the following items, in order.
1. CCCCCCCCCCCCCC[P+](CCCC)(CCCC)CCCC.O=S(=O)([O-])C(F)(F)C(F)C(F)(F)F
2. CCCCn1cc[n+](C)c1.O=S(=O)([O-])C(F)(F)C(F)OC(F)(F)F (stereo not drawn)

Result string:
66.6
28.2
